- Tested on: PC-3
- METHOD: Growth inhibition of human PC3 cells after 48 hrs by SRB assay
- Assay type: functional
- CONDITION NOTES: PC-3, 48 h
Label y when GI50 is strictly below 3000 nM; otherwise label n.

QUERY SMILES	ANSWER LABEL
NC(=O)c1cc(Br)ccc1NC(=O)/C=C/c1ccccc1	y
NC(=O)c1cc(I)ccc1NC(=O)/C=C/c1ccccc1Cl	y
NC(=O)c1cc(Cl)ccc1NC(=O)/C=C/c1ccccc1	n
NC(=O)c1cc(I)ccc1NC(=O)/C=C/c1ccccc1	y
Cc1ccc(NC(=O)/C=C/c2ccccc2)c(C(N)=O)c1	n

* * *

- Tested on: KM12
- METHOD: Growth inhibition of human KM12 cells after 48 hrs by SRB assay
- Format: functional
- CONDITION NOTES: KM12, 48 h
Some molecules, each annotated with its measured GI50.
MEASURED ATTRIBUTE: GI50 (nM)

QUERY SMILES	ASSAY TARGET	NUMERIC RESULT
Cc1ccc(NC(=O)/C=C/c2ccccc2)c(C(N)=O)c1	KM12	2940
NC(=O)c1cc(Br)ccc1NC(=O)/C=C/c1ccccc1	KM12	739
NC(=O)c1cc(I)ccc1NC(=O)/C=C/c1ccccc1Cl	KM12	533
NC(=O)c1cc(Cl)ccc1NC(=O)/C=C/c1ccccc1	KM12	1690
NC(=O)c1cc(I)ccc1NC(=O)/C=C/c1ccccc1	KM12	499

* * *

Some molecules, each annotated with its measured GI50.
- Tested on: SNB-19
- METHOD: Growth inhibition of human SNB19 cells after 48 hrs by SRB assay
- Type: functional
- CONDITION NOTES: SNB-19, 48 h

QUERY SMILES	ASSAY TARGET	GI50, nM
NC(=O)c1cc(Cl)ccc1NC(=O)/C=C/c1ccccc1	SNB-19	3180
Cc1ccc(NC(=O)/C=C/c2ccccc2)c(C(N)=O)c1	SNB-19	5690
NC(=O)c1cc(Br)ccc1NC(=O)/C=C/c1ccccc1	SNB-19	2000
NC(=O)c1cc(I)ccc1NC(=O)/C=C/c1ccccc1	SNB-19	586
NC(=O)c1cc(I)ccc1NC(=O)/C=C/c1ccccc1Cl	SNB-19	1410

* * *

- Test system: HT-29
- METHOD: Growth inhibition of human HT-29 cells after 48 hrs by SRB assay
- Format: functional
- CONDITION NOTES: HT-29, 48 h
Label yes (1) when GI50 is strictly below 500 nM; otherwise label no (0).

QUERY SMILES	ANSWER LABEL
NC(=O)c1cc(Br)ccc1NC(=O)/C=C/c1ccccc1	no (0)
NC(=O)c1cc(I)ccc1NC(=O)/C=C/c1ccccc1Cl	yes (1)
NC(=O)c1cc(I)ccc1NC(=O)/C=C/c1ccccc1	yes (1)
Cc1ccc(NC(=O)/C=C/c2ccccc2)c(C(N)=O)c1	no (0)
NC(=O)c1cc(Cl)ccc1NC(=O)/C=C/c1ccccc1	no (0)

* * *

- Tested on: RXF 393
- METHOD: Growth inhibition of human RXF393 cells after 48 hrs by SRB assay
- Assay type: functional
- CONDITION NOTES: RXF 393, 48 h
MEASURED ATTRIBUTE: GI50 (nM)

QUERY SMILES	NUMERIC RESULT
NC(=O)c1cc(Cl)ccc1NC(=O)/C=C/c1ccccc1	1710
NC(=O)c1cc(I)ccc1NC(=O)/C=C/c1ccccc1Cl	425
NC(=O)c1cc(I)ccc1NC(=O)/C=C/c1ccccc1	3020
NC(=O)c1cc(Br)ccc1NC(=O)/C=C/c1ccccc1	444
